# System: T1, MICA*008 on MEL-JUSO cells (human, UniProt Q29983 24-317)
# T1 chain: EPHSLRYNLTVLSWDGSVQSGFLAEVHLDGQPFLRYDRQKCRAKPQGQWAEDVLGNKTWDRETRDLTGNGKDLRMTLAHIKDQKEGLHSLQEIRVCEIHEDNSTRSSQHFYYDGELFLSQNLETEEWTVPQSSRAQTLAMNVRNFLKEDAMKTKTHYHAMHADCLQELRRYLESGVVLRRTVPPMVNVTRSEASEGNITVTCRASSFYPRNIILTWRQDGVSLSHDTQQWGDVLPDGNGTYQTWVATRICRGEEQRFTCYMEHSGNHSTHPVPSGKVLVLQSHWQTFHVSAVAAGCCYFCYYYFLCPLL
# Measurement Notes: cell-based or functional assay
Property Name: % max inhibition of shedding (%)
State the answer as a number, implicitly in %.

Kindly indicate its recorded % max inhibition of shedding. Item: 15F11 (antibody, V domains shown, Mouse variable domains; constant regions differ by assay) VH: EIQLQQSGPELVKPGASVRVSCKPSGYAFTSNNIYWVKQSRRKSLEWIGYIDPYIGRIIYNQQFKDKATLTVDKSSSTAYMHLNSLTSEDSAVYYCSRSGERSNFDYWGQGTTLTVSS VL: EIVLTQSPTAMAASPGEKITITCSASSSISSNYLHWYQQKPGFSPKLLIYRTSNLASGVPARFSGSGSGTSYSLTIGPMEAEDVATYYCQQGGSLPLTFGAGTKVEIK
74
